target: MAGL (Mus musculus, UniProt O35678); test: biochemical; settings: mouse; in vitro competitive ABPP; read-out: Mouse (IC50 value, nM) MAGL
Sequence (O35678 whole entry): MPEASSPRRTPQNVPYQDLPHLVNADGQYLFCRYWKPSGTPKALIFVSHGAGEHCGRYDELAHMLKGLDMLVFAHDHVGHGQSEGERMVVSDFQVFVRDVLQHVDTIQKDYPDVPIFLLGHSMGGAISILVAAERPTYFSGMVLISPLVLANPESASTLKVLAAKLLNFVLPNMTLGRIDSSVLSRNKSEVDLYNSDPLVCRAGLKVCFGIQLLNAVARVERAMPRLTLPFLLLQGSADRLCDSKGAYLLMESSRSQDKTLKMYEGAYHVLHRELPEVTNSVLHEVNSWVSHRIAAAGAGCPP
# key: entry, value: IC50

Before answering, review these 8 worked examples.
compound: CCn1cc(CN2CC3CN(C(=O)OC(C(F)(F)F)C(F)(F)F)CC3C2)c(-c2cccc(N3CCC3)c2)n1 (stereo not drawn)
IC50: < 100 nM
//
compound: Cc1cccc(CN2CC3CN(C(=O)OC(C(F)(F)F)C(F)(F)F)CC3C2)c1N1CCC2(CCOC2)C1 (stereo not drawn)
IC50: < 100 nM
//
compound: CS(=O)(=O)N1CCC2(CCN(c3ccccc3CN3CC4CN(C(=O)OC(C(F)(F)F)C(F)(F)F)CC4C3)C2)C1 (stereo not drawn)
IC50: < 100 nM
//
compound: O=C(OC(C(F)(F)F)C(F)(F)F)N1CC2CN(Cc3ccc(Cl)cc3N3CCC3)CC2C1 (stereo not drawn)
IC50: < 100 nM
//
compound: Cc1c(CN2CC3CN(C(=O)OC(C(F)(F)F)C(F)(F)F)CC3C2)cccc1N1CCC(F)(F)CC1 (stereo not drawn)
IC50: < 100 nM
//
compound: CC(=O)N1CC2(CCN(c3ccccc3CN3CC4CN(C(=O)OC(C(F)(F)F)C(F)(F)F)CC4C3)C2)C1 (stereo not drawn)
IC50: < 100 nM
//
compound: CCc1cc(CN2CC3CN(C(=O)OC(C(F)(F)F)C(F)(F)F)CC3C2)n(C2CCOCC2)n1 (stereo not drawn)
IC50: < 100 nM
//
compound: CCn1ncc(CN2CC3CN(C(=O)OC(C(F)(F)F)C(F)(F)F)CC3C2)c1C(=O)NCC1CCOCC1 (stereo not drawn)
IC50: < 100 nM

Retrieve IC50 measured for O=C(ON1C(=O)CCC1=O)N1CC2CN(Cc3ccc(N4CCOCC4)cc3OC(F)(F)F)CC2C1 (stereo not drawn) and print it.
100 to 1000 nM

Specify measured IC50 for CS(=O)(=O)N1CCN(c2cc(Cl)ccc2CN2CC3CN(C(=O)OC(C(F)(F)F)C(F)(F)F)CC3C2)CC1 (stereo not drawn) .
< 100 nM

Give the reported IC50 for this compound. CCn1ncc(CN2CC3CN(C(=O)OC(C(F)(F)F)C(F)(F)F)CC3C2)c1C(=O)NCc1ccccc1 (stereo not drawn)
< 100 nM

Read off the recorded IC50 for O=C(OC(C(F)(F)F)C(F)(F)F)N1CC2CN(Cc3ccc(Cl)cc3N3CCC4(CCOCC4)C3)CC2C1 (stereo not drawn)
< 100 nM

Provide IC50 value for the following compound: O=C(OC(C(F)(F)F)C(F)(F)F)N1CC2CN(Cc3ccc(N4CCCCC4)cc3C(F)F)CC2C1 (stereo not drawn)
100 to 1000 nM

Dear colleague, please send me the reported IC50 for O=C(OC(C(F)(F)F)C(F)(F)F)N1CC2CN(Cc3ccc(Cl)cc3N3CCC(C(=O)N4CCCC4)CC3)CC2C1 (stereo not drawn) when you can.
< 100 nM

For O=C(OC(C(F)(F)F)C(F)(F)F)N1CC2CN(Cc3cccc(N4CCC5(CCOC5)C4)c3Cl)CC2C1 (stereo not drawn) , write its IC50.
< 100 nM
